Just for reference, paper PMC12207370 is where these values come from.

Recorded Percentage Average, one value per entry.
- TARGET ENTITY: biotinylated CD59 (Homo sapiens)
- Construct: Recombinant soluble human CD59 with an additional C-terminal cysteine residue
- Sequence (P13987 26-102 limits assumed): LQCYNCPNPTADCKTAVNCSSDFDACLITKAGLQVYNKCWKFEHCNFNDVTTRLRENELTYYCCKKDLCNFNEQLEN
- PROTOCOL TEXT: mRNA-display cyclic peptide screen against CD59-biotin, NGS abundance after 6th selection round
- CONDITION INFO: percentage of the pool averaged across the two sequencing samples, sheet R6
Return type: number; implicit unit %.

| SEQUENCE CHAIN | TARGET ENTITY | Percentage Average (%) |
| --- | --- | --- |
| FVTGNRGHTRG | biotinylated CD59 (Homo sapiens) | 0.020 |
| CYGNSHASWG | biotinylated CD59 (Homo sapiens) | 0.476 |
| VASGGRYWSRA | biotinylated CD59 (Homo sapiens) | 0.121 |

Name the reported Percentage Average value associated with the sequence `CHGGRTFIYAWS`
0.025
